Source: patent US20230017045A1

# maps each entry to its pest or weed control at 140 g/ha
# Tested on: test plant species
# measurement_description: Post-emergent herbicidal activity test (greenhouse, foliar spray, visual growth reduction)
# Type: in vivo
# cond: post-emergence, 336 h, CHEAL: lambsquarters (Chenopodium album), 140 g ai/ha, 14 days after application, read-out: Visual Growth Reduction (%) 14 Days After Application, CHEAL
observation_type: pest or weed control at 140 g/ha

• O=C(O)c1nc(-c2ccc(C(F)(F)F)cc2F)c(F)cc1Cl [F160] = 95 to 100%
• COC(=O)c1nc(-c2ccc(C(F)(F)F)cc2Cl)cc(Cl)c1Cl [F108] = 0 to 29%
• COC(=O)c1nc(-c2ccc(OC(C)(C)C)cc2Cl)ccc1Cl [F36] = 0 to 29%
• COC(=O)c1nc(-c2ccc(C(F)(F)F)cc2Cl)cc(F)c1Cl [F109] = 0 to 29%
• CCOC(=O)c1nc(-c2ccc(Cl)c(OC)c2F)cc(OCC)c1N [F77] = 45 to 59%
• C#Cc1cc(-c2ccc(C(F)(F)F)cc2Cl)nc(C(=O)OC)c1Cl [F40] = 0 to 29%
• O=C(O)c1nc(-c2ncc(Cl)c(C(F)F)c2Cl)ccc1Cl [F193] = 85 to 94%
• O=C(O)c1nc(-c2ccc(SC(F)(F)F)cc2)c(Cl)cc1Cl [F89] = 45 to 59%
• COC(=O)c1nc(-c2ccc3[nH]ccc3c2)c(F)cc1Cl [F189] = 30 to 44%
• COC(=O)c1nc(-c2ccc(Cl)cc2)cc(Cl)c1Cl [F80] = 30 to 44%
• COC(=O)c1nc(-c2ccc(C(F)(F)F)nc2)c(F)cc1Cl [F92] = 0 to 29%
• CO/N=C/c1c(C(F)(F)F)ccc(-c2ccc(Cl)c(C(=O)OC)n2)c1Cl [F141] = 0 to 29%
• O=C(O)c1nc(-c2ccc(C(F)(F)F)cc2Cl)ccc1Cl [F61] = 95 to 100%
• COC(=O)c1nc(-c2ccc(C(F)(F)F)nc2)c(O)cc1Cl [F87] = 0 to 29%
• COC(=O)c1nc(-c2ccc(C(F)(F)F)cc2Cl)c(I)cc1Cl [F6] = 0 to 29%
• COC(=O)c1nc(-c2ccc(C(C)O)cc2Cl)ccc1Cl (stereo not drawn) [F1] = 0 to 29%
• C=Cc1ccc(-c2ccc(Cl)c(C(=O)OC)n2)c(Cl)c1 [F23] = 0 to 29%
• COC(=O)c1nc(-c2ccc(C(F)(F)F)c(Br)c2Cl)ccc1Cl [F140] = 85 to 94%
• COC(=O)c1nc(-c2ccc(C#N)cc2Cl)c(F)cc1Cl [F186] = 85 to 94%
• COC(=O)c1nc(-c2ccc(SC(F)(F)F)cc2)c(Cl)cc1Cl [F98] = 0 to 29%
• COC(=O)c1nc(-c2ccc(C(F)(F)F)cc2F)c(Cl)cc1Cl [F102] = 60 to 74%

* * *

# System: test plant species
# measurement_description: Post-emergent herbicidal activity test (greenhouse, foliar spray, visual growth reduction)
# Assay type: in vivo
# cond: post-emergence, 336 h, SORVU: grain sorghum (Sorghum vulgare), 140 g ai/ha, 14 days after application, read-out: Visual Growth Reduction (%) 14 Days After Application, SORVU
# maps each entry to its pest or weed control at 140 g/ha
observation_type: pest or weed control at 140 g/ha

* COC(=O)c1nc(-c2ccc(C(F)(F)F)cc2Cl)c(O)cc1Cl | 0 to 29%
* COC(=O)c1nc(-c2ccc(C(F)(F)F)cc2Cl)cc(C)c1Cl | 60 to 74%
* COC(=O)c1nc(-c2cccc3c2OC(F)(F)O3)ccc1Cl | 75 to 84%
* COc1c(Cl)ccc(-c2ccc(Cl)c(C(=O)O)n2)c1F | 0 to 29%
* C#CCOC(=O)c1nc(-c2ccc(C(F)(F)F)cc2Cl)ccc1Cl | 85 to 94%
* COC(=O)c1nc(-c2ccc(OC)cc2Cl)ccc1Cl | 0 to 29%
* COC(=O)c1nc(-c2ccc(C3(C#N)CC3)cc2Cl)ccc1Cl | 75 to 84%
* COC(=O)c1nc(-c2ccc(OC(F)F)cc2Cl)c(F)cc1Cl | 95 to 100%
* COC(=O)c1nc(-c2ccc(C(F)(F)F)cc2Br)ccc1Cl | 85 to 94%
* COC(=O)c1nc(-c2ccc(C(F)(F)F)cc2)c(F)cc1Cl | 0 to 29%
